All values here come from ChEMBL document CHEMBL1138401.

# tgt: P2Y purinoceptor 2 (Homo sapiens, UniProt P41231)
# Sequence (P41231 whole entry): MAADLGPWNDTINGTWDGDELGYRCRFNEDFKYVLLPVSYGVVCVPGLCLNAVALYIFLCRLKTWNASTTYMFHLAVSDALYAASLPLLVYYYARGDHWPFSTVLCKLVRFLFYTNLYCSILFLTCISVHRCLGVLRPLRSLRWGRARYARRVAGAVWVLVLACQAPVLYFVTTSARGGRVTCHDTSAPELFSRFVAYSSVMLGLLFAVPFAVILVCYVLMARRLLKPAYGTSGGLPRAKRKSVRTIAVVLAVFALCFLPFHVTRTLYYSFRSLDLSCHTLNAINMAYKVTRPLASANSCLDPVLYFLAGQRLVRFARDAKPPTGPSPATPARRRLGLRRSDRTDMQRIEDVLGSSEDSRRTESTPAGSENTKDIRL
# experimentDescription: Agonist activity at human P2Y2 receptor expressed in human 1321N1 by FLIPR assay
property: EC50 (nM)
Return type: number; implicit unit nM.

Here is how some molecules turned out for EC50.
- smilesRepr: "O=P(O)(O)OP(=O)(O)OP(=O)(O)OC[C@H]1O[C@@H](c2nc3cc(F)ccc3s2)[C@H](O)[C@@H]1O"
  measurementUnit: "nM"
  EC50: 3
- smilesRepr: "COc1cccc2sc([C@@H]3O[C@H](COP(=O)(O)OP(=O)(O)OP(=O)(O)O)[C@@H](O)[C@H]3O)nc12"
  measurementUnit: "nM"
  EC50: 700
- smilesRepr: "O=P(O)(O)OP(=O)(O)OP(=O)(O)OC[C@H]1O[C@@H](c2nc3ccccc3s2)[C@H](O)[C@@H]1O"
  measurementUnit: "nM"
  EC50: 22

Query :: I'm curious: which EC50 was measured for `Cc1ccc2oc([C@@H]3O[C@H](COP(=O)(O)OP(=O)(O)OP(=O)(O)O)[C@@H](O)[C@H]3O)nc2c1` tested on P2Y purinoceptor 2 (Homo sapiens, UniProt P41231)?
Result :: 390

Query :: Field: EC50 (P2Y purinoceptor 2 (Homo sapiens, UniProt P41231)). Entry: `O=P(O)(O)OP(=O)(O)OP(=O)(O)OC[C@H]1O[C@@H](c2nc3ccc(Cl)cc3s2)[C@H](O)[C@@H]1O`
Result :: 8

Query :: Kindly state the measured EC50 obtained for `O=P(O)(O)OP(=O)(O)OP(=O)(O)OC[C@H]1O[C@@H](c2nc3cc(C(F)(F)F)ccc3s2)[C@H](O)[C@@H]1O` with P2Y purinoceptor 2 (Homo sapiens, UniProt P41231).
Result :: 10
